Each entry below lists one item and its recorded yeast fitness value.
B1: tRNA (parent)
chain: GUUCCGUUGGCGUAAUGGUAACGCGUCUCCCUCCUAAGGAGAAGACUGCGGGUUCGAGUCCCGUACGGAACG

# Variants of: B1
# protocol: yeast fitness relative to wild type (ratio to wild type); higher = fitter; tRNA-Arg(CCU), competitive growth, 37 C, YPD
Fewer inactive variants are shown than the library holds.
parameter: yeast fitness

variant_string="A36U G38C A43G G68C" relation=≤ numeric_readout=0.5
variant_string="U26A C31A A42G C55G A57C" relation=≤ numeric_readout=0.5
variant_string="C5A A20G C29A G51C G67C" relation=≤ numeric_readout=0.5
variant_string="C24G A43G U47A U53A" relation=≤ numeric_readout=0.5
variant_string="U3A G39A C49U" relation== numeric_readout=0.559
variant_string="C5A G9A G10A A20G" relation=≤ numeric_readout=0.5
variant_string="U16A C66U" relation== numeric_readout=0.897
variant_string="U2A U16G" relation== numeric_readout=1.03
variant_string="G6A G9C A14C C27A C31U C34A A42C C46G" relation=≤ numeric_readout=0.5
variant_string="C11U A42C" relation== numeric_readout=0.91
variant_string="C49A G67U" relation== numeric_readout=0.746
variant_string="A15G U28C C30U A36C A45U G50C" relation=≤ numeric_readout=0.5
variant_string="A36C C49A U64C" relation== numeric_readout=0.767
variant_string="G10A C31U G38C G63A A65G G68C A69G" relation=≤ numeric_readout=0.5
variant_string="U8A G10A G39A" relation== numeric_readout=0.626
variant_string="U3A C4U C33G C34G U54A" relation=≤ numeric_readout=0.5
variant_string="G12C C55G" relation== numeric_readout=0.608
variant_string="A14G G67A" relation== numeric_readout=0.821
variant_string="C11U U35A G38A G56C" relation=≤ numeric_readout=0.5
variant_string="A20G A40U G52A C55A" relation== numeric_readout=0.529
variant_string="G9A A65G C66U" relation== numeric_readout=0.815
variant_string="A15U U16C A40U U59A A70C" relation=≤ numeric_readout=0.5
